Origin of the recorded values: patent US20220017615A1

Molecular target: T1, His-tagged CD47 recombinant protein, CD47-His (human, UniProt Q08722 19-141, limits assumed)
T1 construct: it is not restated for CD47-His; also called human CD47-His protein; antigen CD47-His; not shown: His tag
Assay: BLI (Octet Red 96), antibody on AHC sensor, CD47-His 100 nM
metric_name: koff (s⁻¹)
Just the number please, in s⁻¹, no unit attached.

The cases that follow already have their koff on record.
>  <binder>
c51E2F11 (antibody, V domains shown) VH: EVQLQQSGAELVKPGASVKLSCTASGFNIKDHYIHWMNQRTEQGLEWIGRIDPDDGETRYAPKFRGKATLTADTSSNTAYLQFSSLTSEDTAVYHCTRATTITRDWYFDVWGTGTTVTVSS VL: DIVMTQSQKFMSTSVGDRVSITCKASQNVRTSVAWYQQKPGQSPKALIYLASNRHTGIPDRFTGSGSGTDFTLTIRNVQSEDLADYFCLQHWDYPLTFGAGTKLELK

>  <unit_of_measurement>
s⁻¹

>  <result_number>
0.00103

$$$$
>  <binder>
c132D1E5 (antibody, V domains shown) VH: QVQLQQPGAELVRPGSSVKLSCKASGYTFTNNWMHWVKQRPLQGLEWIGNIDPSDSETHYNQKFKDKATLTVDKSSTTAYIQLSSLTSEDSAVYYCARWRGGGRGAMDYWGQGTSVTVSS VL: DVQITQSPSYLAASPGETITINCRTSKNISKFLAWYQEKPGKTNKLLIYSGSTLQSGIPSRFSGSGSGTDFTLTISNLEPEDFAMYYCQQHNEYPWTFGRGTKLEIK

>  <unit_of_measurement>
s⁻¹

>  <result_number>
0.000362

$$$$
>  <binder>
c95E2D10 (antibody, V domains shown) VH: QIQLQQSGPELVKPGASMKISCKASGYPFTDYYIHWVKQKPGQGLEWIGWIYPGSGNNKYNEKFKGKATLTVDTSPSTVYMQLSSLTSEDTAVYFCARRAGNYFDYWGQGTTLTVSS VL: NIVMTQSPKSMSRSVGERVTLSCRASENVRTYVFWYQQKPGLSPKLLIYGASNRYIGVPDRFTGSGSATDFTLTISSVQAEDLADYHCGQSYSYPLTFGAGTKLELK

>  <unit_of_measurement>
s⁻¹

>  <result_number>
0.00358

$$$$

Param item = c54G8G6 (antibody, V domains shown) VH: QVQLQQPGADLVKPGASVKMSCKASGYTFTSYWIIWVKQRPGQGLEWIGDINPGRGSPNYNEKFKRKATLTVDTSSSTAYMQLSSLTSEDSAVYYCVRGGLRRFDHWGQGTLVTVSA VL: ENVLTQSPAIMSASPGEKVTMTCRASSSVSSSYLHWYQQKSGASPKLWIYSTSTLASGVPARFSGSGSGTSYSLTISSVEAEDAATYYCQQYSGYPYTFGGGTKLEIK ; retrieve measured koff.
0.000478

Same thing, different binder: c20H4G5 (antibody, V domains shown) VH: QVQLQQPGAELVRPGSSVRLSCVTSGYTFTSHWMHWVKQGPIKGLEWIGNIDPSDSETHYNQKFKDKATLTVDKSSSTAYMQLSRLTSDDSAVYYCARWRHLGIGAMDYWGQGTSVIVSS VL: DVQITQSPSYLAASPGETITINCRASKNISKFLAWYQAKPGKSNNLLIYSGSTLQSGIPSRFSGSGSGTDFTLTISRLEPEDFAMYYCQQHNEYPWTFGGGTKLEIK
0.000202

# iterate: c4D10B11 (antibody, V domains shown) VH: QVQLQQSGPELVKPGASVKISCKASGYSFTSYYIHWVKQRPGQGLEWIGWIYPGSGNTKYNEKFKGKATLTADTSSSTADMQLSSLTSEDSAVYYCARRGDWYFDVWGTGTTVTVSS VL: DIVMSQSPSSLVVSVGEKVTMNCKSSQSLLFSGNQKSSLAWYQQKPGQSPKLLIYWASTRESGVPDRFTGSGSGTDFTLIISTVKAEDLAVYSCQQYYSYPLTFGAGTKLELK
0.000284

Further, for c25E3B5 (antibody, V domains shown) VH: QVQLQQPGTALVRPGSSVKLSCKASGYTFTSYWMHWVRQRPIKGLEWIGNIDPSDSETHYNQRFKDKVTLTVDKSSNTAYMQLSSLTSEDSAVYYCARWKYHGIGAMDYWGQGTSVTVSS VL: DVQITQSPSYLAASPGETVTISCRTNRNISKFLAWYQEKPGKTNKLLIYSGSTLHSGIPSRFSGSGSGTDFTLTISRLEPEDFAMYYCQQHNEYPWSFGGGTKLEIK ?
0.000867

And c29A03NA (antibody, V domains shown, Phage-derived clone 29A03 with the NG site of CDRL1 mutated to NA) VH: EVQLQQSGAELVKPGASVKMSCKASGYTFTNYWITWVKQRPGQGLEWIGDIYPVSGGTDYNEKFKTRATLTVDTSSSTAYMHLSSLTSEDSAVYYCARKGRGGVDYWGQGTTLTVSS VL: DILMTQTPLSLPVSLGDQASISCRSSQSIVHSNANTYLEWYLQKPGQSPKLLIYKVSNRFSGVPDRFSGSGSGTDFTLKISRVEAEDLGVYFCSQSTHVPYTFGGGTKLEIK ?
0.00207
